Provenance of the data: the METLIN SMRT retention time set (Domingo-Almenara et al. 2019)

test: gradient 5% acetonitrile 3 min, to 50% in 2 min, to 85% in 15 min, held 3 min, 100 µL/min; conditions: column: Zorbax Extend-C18 2.1 x 50 mm; eluents: water / acetonitrile, 0.1% formic acid
Param label: returns TRUE when RP-LC retention time < 1000 s, returns FALSE otherwise, including exact equality.

Reference set, count: 3
• Cc1noc(C)c1S(=O)(=O)N1CCC(CCOc2ccccc2)C1 (configuration not stated) = FALSE
• CCOC(=O)N1CCN(c2cc(-c3nc(-c4cccc(OC)c4OC)no3)c3ccccc3n2)CC1 = FALSE
• CCN(CC)S(=O)(=O)c1ccc2c(c1)CC(C(=O)N1CCCCCC1)N2C(C)=O (configuration not stated) = TRUE

Is the reported RP-LC retention time for `Cc1ccc(CN2CCN(CC(=O)Nc3nc(-c4ccc(C)c(C)c4)cs3)CC2)cc1` strictly below 1000 s?
TRUE

Do the same for CCN1C(=O)NC(c2ccc(C)cc2C)C2=C1CN(CCC(=O)N1CCCC1)C2=O (configuration not stated) please
TRUE

Do the same for `COc1ccc(-c2noc(Cn3cnc4c(cnn4-c4ccc(Cl)cc4)c3=O)n2)cc1` please
FALSE

Do the same for `COc1ccc(-c2nc(NCc3ccc(C)o3)c3ccccc3n2)cc1` please
TRUE

Do the same for `CCOc1ccc(CC(=O)NCCc2nc3cccnc3n2C)cc1` please
TRUE

Do the same for `Cc1ccc(CNC(=O)CSc2nc3nc(C)cc(C)n3n2)cc1` please
TRUE
